The values you see were collected from the supplement of paper PMC9112550.

System: Escherichia coli TOP10;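 further: peptides expressed intracellularly from a pBAD plasmid library in pooled LB shake-flask culture, induced with 0.3% L-arabinose, DNA abundance read by NGS, three biological replicates, DESeq2 with apeglm shrinkage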
Experiment: shrunken log2 fold change of peptide-encoding DNA abundance (4.5 h post-induction vs induction); higher = less antimicrobial activity (less host growth inhibition)
Conditions: time post-induction: 4.5 h; library: site-saturation at positions 5, 18, 19, 20
endpoint: shrunken log2 fold change

Name the recorded shrunken log2 fold change of the sequence listed here: RRIRVRPPRLPRPRPRPGTWPRP
-0.0352

Give shrunken log2 fold change for RRIRTRPPRLPRPRPRPRRCPRP
0.0091

Quickly give me recorded shrunken log2 fold change for RRIRLRPPRLPRPRPRPPYSPRP
-0.125

Supply reported shrunken log2 fold change belonging to this sequence: RRIRKRPPRLPRPRPRPWFFPRP
-0.043

Item RRIRPRPPRLPRPRPRPKIVPRP : provide shrunken log2 fold change
0.026

Please indicate shrunken log2 fold change recorded for RRIRVRPPRLPRPRPRPGMQPRP
0.116

Query shrunken log2 fold change for RRIRKRPPRLPRPRPRPSDDPRP
0.154

Determine from records and report shrunken log2 fold change for RRIRQRPPRLPRPRPRPFDWPRP
-0.0369

Please list shrunken log2 fold change recorded for the sequence RRIRMRPPRLPRPRPRPSAHPRP
0.423

Give me measured shrunken log2 fold change, please, for this sequence: RRIRRRPPRLPRPRPRPGHRPRP
0.192

Write down shrunken log2 fold change measured for item RRIRLRPPRLPRPRPRPMPKPRP
-0.105

Look up shrunken log2 fold change of RRIRHRPPRLPRPRPRPYHMPRP and report it.
-0.0151

Supply measured shrunken log2 fold change of RRIRFRPPRLPRPRPRPTAWPRP in your reply.
0.618

Return shrunken log2 fold change (reported value) for this sequence: RRIRSRPPRLPRPRPRPAKNPRP
0.157

Tell us which shrunken log2 fold change value is on record for RRIRWRPPRLPRPRPRPQQWPRP
0.333

For the sequence RRIRLRPPRLPRPRPRPKCPPRP , give its measured shrunken log2 fold change value.
-0.193

# return recorded shrunken log2 fold change for input RRIRERPPRLPRPRPRPPFKPRP
-0.0871

Give a short answer stating reported shrunken log2 fold change for RRIRKRPPRLPRPRPRPEHNPRP .
0.368

Return value of shrunken log2 fold change for input RRIRERPPRLPRPRPRPWVDPRP , no commentary.
-0.665

Check the records and state shrunken log2 fold change for RRIRMRPPRLPRPRPRPYCKPRP
-1.02

Please give measured shrunken log2 fold change of the following entry: RRIRCRPPRLPRPRPRPPHAPRP
1.04

Entry RRIRARPPRLPRPRPRPEMQPRP needs its shrunken log2 fold change filled in; supply it.
1.66

Recall and state the measured shrunken log2 fold change for RRIRNRPPRLPRPRPRPPWCPRP .
0.108

Entry RRIRERPPRLPRPRPRPFYMPRP needs its shrunken log2 fold change filled in; supply it.
-0.167

For the sequence RRIRFRPPRLPRPRPRPYMAPRP , report shrunken log2 fold change.
-0.688

Name the recorded shrunken log2 fold change of the sequence listed here: RRIRFRPPRLPRPRPRPYGLPRP
-0.521

Quote shrunken log2 fold change reported for RRIRIRPPRLPRPRPRPGEIPRP please.
-0.123

Kindly indicate its recorded shrunken log2 fold change. Item: RRIRTRPPRLPRPRPRPTPRPRP
0.674

Give the reported value of shrunken log2 fold change for this record: RRIRRRPPRLPRPRPRPHYFPRP
-0.173

Return reported shrunken log2 fold change. Input sequence: RRIRQRPPRLPRPRPRPKKRPRP
0.107

Return shrunken log2 fold change for the following sequence: RRIRFRPPRLPRPRPRPTMFPRP
-0.322

Write down shrunken log2 fold change measured for item RRIRKRPPRLPRPRPRPFLLPRP
-0.399

Give me measured shrunken log2 fold change, please, for this sequence: RRIRIRPPRLPRPRPRPFIFPRP
-0.696

For the sequence RRIRLRPPRLPRPRPRPRRIPRP , give its measured shrunken log2 fold change value.
0.214

Report measured shrunken log2 fold change; entry is RRIRKRPPRLPRPRPRPQVEPRP
0.248

Give me measured shrunken log2 fold change, please, for this sequence: RRIRHRPPRLPRPRPRPPHWPRP
0.375

Identify measured shrunken log2 fold change corresponding to RRIRCRPPRLPRPRPRPYDQPRP
-0.16

Supply shrunken log2 fold change value. Item: RRIRTRPPRLPRPRPRPRANPRP
0.177

Look up and report measured shrunken log2 fold change for this entry: RRIRLRPPRLPRPRPRPEFNPRP
-0.0571

Supply measured shrunken log2 fold change of RRIRGRPPRLPRPRPRPKFSPRP in your reply.
0.392

Look up and state reported shrunken log2 fold change for RRIRQRPPRLPRPRPRPKCKPRP
0.0386

Look up and report measured shrunken log2 fold change for this entry: RRIRDRPPRLPRPRPRPPHKPRP
0.0115

Please indicate shrunken log2 fold change recorded for RRIRLRPPRLPRPRPRPAFAPRP
0.368

Supply recorded shrunken log2 fold change for RRIRIRPPRLPRPRPRPPPLPRP here.
0.302

For the sequence RRIRTRPPRLPRPRPRPDRAPRP , give its reported shrunken log2 fold change.
-0.438

Complete the entry with shrunken log2 fold change for RRIRMRPPRLPRPRPRPCWKPRP
-0.0216
